Hello, the source for this data is patent US20210253518A1, in case you need it.

- Study System: SGK2 (Homo sapiens, UniProt Q9HBY8)
- Sequence (Q9HBY8 whole entry): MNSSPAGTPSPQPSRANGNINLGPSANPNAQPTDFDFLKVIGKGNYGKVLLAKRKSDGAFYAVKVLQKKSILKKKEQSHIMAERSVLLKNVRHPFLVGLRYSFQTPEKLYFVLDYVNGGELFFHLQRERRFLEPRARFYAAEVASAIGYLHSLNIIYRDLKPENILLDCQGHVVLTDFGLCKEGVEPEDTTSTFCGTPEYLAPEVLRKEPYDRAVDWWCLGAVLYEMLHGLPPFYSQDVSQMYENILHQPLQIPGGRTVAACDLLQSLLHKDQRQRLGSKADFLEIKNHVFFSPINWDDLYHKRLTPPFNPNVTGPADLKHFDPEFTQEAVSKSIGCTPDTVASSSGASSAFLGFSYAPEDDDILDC
Property: IC50 (µM)

In [3]: df
Out[3]:
                                   compound  property  readout_value
0  CC/C(=N\NC(=O)C(C)Nc1ccccc1)c1ccc(O)c(C)c1O (stereo not shown)      IC50         0.0132

====

Examples of compounds with documented IC50 follow.
- Study System: UniProt:O95835
- Sequence (O95835 589-1130 limits assumed): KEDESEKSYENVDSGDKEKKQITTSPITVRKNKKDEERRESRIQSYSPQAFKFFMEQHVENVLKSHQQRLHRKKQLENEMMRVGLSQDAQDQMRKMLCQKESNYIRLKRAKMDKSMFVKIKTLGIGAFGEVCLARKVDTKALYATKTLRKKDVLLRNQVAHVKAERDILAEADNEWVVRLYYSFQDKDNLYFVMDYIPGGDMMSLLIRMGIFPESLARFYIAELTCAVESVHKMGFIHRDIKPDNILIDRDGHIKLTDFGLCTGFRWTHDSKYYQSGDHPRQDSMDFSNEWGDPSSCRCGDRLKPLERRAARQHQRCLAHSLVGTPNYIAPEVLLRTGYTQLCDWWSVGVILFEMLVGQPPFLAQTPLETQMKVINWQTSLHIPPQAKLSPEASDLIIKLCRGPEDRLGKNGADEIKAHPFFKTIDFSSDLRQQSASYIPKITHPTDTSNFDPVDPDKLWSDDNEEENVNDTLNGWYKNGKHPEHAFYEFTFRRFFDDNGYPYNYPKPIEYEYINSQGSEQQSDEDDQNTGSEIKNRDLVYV
Property: IC50 (nM)

>>> df
                                   compound  property  readout_value
0  CC/C(=N\NC(=O)[C@H](C)Nc1cccc(O)c1)c1ccc(O)c(C)c1O [GA-005B]      IC50           1270
1  CC/C(=N\NC(=O)[C@@H](C)Nc1cccc(O)c1)c1ccc(O)c(C)c1O [GA-005A]      IC50           4.79
2  CC/C(=N\NC(=O)C(C)Nc1ccccc1)c1ccc(O)c(C)c1O (stereo not drawn)      IC50           8.88
